Measured (ΔTm)c-(ΔTm)d, difference in melting temperature of LPLA2 alone or in the presence of drug values are reported for all entries that follow.
system under test: LPLA2 (Mus musculus, UniProt Q8VEB4)
Construct: purchased Proteos Inc. (Kalamazoo, MI)
Sequence (Q8VEB4 34-412): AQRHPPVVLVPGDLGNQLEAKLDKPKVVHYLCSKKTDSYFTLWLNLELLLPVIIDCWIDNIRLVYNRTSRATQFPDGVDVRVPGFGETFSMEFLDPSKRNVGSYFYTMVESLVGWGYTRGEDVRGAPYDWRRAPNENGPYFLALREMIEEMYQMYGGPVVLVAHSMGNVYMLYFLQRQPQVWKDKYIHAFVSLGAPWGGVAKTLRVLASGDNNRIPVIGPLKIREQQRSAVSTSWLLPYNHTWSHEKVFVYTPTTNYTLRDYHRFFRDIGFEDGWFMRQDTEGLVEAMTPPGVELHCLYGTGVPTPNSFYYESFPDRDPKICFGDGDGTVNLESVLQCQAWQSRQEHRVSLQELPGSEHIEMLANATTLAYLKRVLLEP
test: LPLA2 thermal stability measurement (SYPRO Orange Tm)
Format: binding
cond: N=3 ± SD

CCC(=O)O[C@@H](O[P@](=O)(CCCCc1ccccc1)CC(=O)N1C[C@H](C2CCCCC2)C[C@H]1C(=O)O)C(C)C [Fosinopril] :: -0.90 ± 0.1 °C
CN1CCc2c(c3ccccc3n2Cc2ccccc2)C1 [mebhydroline] :: 0.84 ± 0.1 °C
O=C(CCCN1CCN(c2ccccn2)CC1)c1ccc(F)cc1 [Azaperone] :: 0.93 ± 0.1 °C
CCN(CCCc1ccccc1)CCCc1ccccc1 [Alverine, ethyl bis (3-phenylpropyl)amine] :: 0.14 ± 0.1 °C
CCCCCCCCNC(C)C(O)c1ccc(SC(C)C)cc1 (stereo not drawn) [Suloctidil] :: 2.00 ± 0.2 °C

Note to self: (ΔTm)c-(ΔTm)d, difference in melting temperature of LPLA2 alone or in the presence of drug of CCOC(=O)c1cncn1[C@H](C)c1ccccc1 [Etomidate] with LPLA2 (Mus musculus, UniProt Q8VEB4) was -0.76 ± 0.3 °C

Note to self: (ΔTm)c-(ΔTm)d, difference in melting temperature of LPLA2 alone or in the presence of drug of CCN(CCCCOC(=O)c1ccc(OC)c(OC)c1)C(C)Cc1ccc(OC)cc1 (stereo not drawn) [Mebeverine] with LPLA2 (Mus musculus, UniProt Q8VEB4) was -0.05 ± 0.5 °C

Note to self: (ΔTm)c-(ΔTm)d, difference in melting temperature of LPLA2 alone or in the presence of drug of OC(CCN1CCCC1)(c1ccccc1)C1CCCCC1 (stereo not drawn) [Procyclidine] with LPLA2 (Mus musculus, UniProt Q8VEB4) was 0.51 ± 0.0 °C

Note to self: (ΔTm)c-(ΔTm)d, difference in melting temperature of LPLA2 alone or in the presence of drug of CCN1CCCC1CNC(=O)c1cc(S(N)(=O)=O)ccc1OC (stereo not drawn) [Sulpiride] with LPLA2 (Mus musculus, UniProt Q8VEB4) was 1.34 ± 0.9 °C

* * *

System: MDCK cells
test: Screening phospholipidosis assay (LipidTOX Red / NucBlue Live fluorescence ratio)
cond: LipidTOX Red to NucBlue Live fluorescence ratio, 24 h, 15 μM
measured quantity: Ratio (15 μM)

Worked cases, Ratio (15 μM) given:
COc1ccc(C2CNC(=O)C2)cc1OC1CCCC1 (centres unmarked) :: 0.19
CCc1oc2ccccc2c1C(=O)c1cc(Br)c(O)c(Br)c1 :: 0.5
NC(=O)N1c2ccccc2C=Cc2ccccc21 [Carbamazepine] :: 0.18
Cc1cc(C(C)(C)C)cc(C)c1CC1=NCCN1 :: 0.16

Note: attention shifts to another entry.
Record "Cn1c(=O)[nH]c2ncn(C)c2c1=O" . Reported Ratio (15 μM): 0.55

* * *

system under test: LPLA2 (Mus musculus)
Construct: purchased Proteos Inc. (Kalamazoo, MI)
test: LPLA2 thermal stability measurement (SYPRO Orange Tm)
Type: binding
// classify: if ((ΔTm)c-(ΔTm)d, difference in melting temperature of LPLA2 alone or in the presence of drug < 0.3 °C) Yes else No

A selection of reference data follows.
Clc1ccc(C(c2ccccc2Cl)C(Cl)Cl)cc1 (stereo not drawn) :: No
Cl.NCCc1ccc(O)c(O)c1 [3-Hydroxytyramine hydrochloride] :: No
COC(=O)[C@@H]1[C@H]2C[C@H]3c4[nH]c5ccccc5c4CCN3C[C@@H]2CC[C@@H]1O :: No

Threshold test, (ΔTm)c-(ΔTm)d, difference in melting temperature of LPLA2 alone or in the presence of drug < 0.3 °C: "CN1CCN(CCCN2c3ccccc3Sc3ccc(C(F)(F)F)cc32)CC1"
No

Threshold test, (ΔTm)c-(ΔTm)d, difference in melting temperature of LPLA2 alone or in the presence of drug < 0.3 °C: O=c1[nH]c2ccccc2n1C1CCN(CCCC(c2ccc(F)cc2)c2ccc(F)cc2)CC1 [Pimozide]
Yes

Threshold test, (ΔTm)c-(ΔTm)d, difference in melting temperature of LPLA2 alone or in the presence of drug < 0.3 °C: "OCCN1CCN(CCCN2c3ccccc3Sc3ccc(Cl)cc32)CC1"
Yes

Threshold test, (ΔTm)c-(ΔTm)d, difference in melting temperature of LPLA2 alone or in the presence of drug < 0.3 °C: "CC#C[C@]1(O)CC[C@H]2[C@@H]3CCC4=CC(=O)CCC4=C3[C@@H](c3ccc(N(C)C)cc3)C[C@@]21C"
Yes

Threshold test, (ΔTm)c-(ΔTm)d, difference in melting temperature of LPLA2 alone or in the presence of drug < 0.3 °C: "CCc1oc2ccccc2c1C(=O)c1cc(Br)c(O)c(Br)c1"
Yes

Threshold test, (ΔTm)c-(ΔTm)d, difference in melting temperature of LPLA2 alone or in the presence of drug < 0.3 °C: CC(C)N(CCC(C(N)=O)(c1ccccc1)c1ccccn1)C(C)C (stereo not drawn) [Disopyramide]
Yes

* * *

system under test: recombinant mouse LPLA2 (PLA2G15) (Mus musculus, UniProt Q8VEB4)
Construct: purchased Proteos Inc. (Kalamazoo, MI)
test: Transacylase activity of LPLA2 (1-O-acyl-N-acetylsphingosine synthase, cell-free liposome assay)
Format: biochemical
cond: 1-O-acyl N-acetylsphingosine synthase activity, pH 4.5, DOPC/sulfatide liposomes; read-out: LPLA2 IC50
measured quantity: IC50 (µM)
Provide only the numeric value, understood in µM.

Worked cases, IC50 given:
CCC(C)(C)c1ccc(CC(C)CN2C[C@@H](C)O[C@@H](C)C2)cc1 (stereo partly drawn) :: 41.5
COc1ccc(CN(CCN(C)C)c2ccccn2)cc1 :: 214

Note: attention shifts to another entry.
Record "O=C(CCCN1CCC2(CC1)C(=O)NCN2c1ccccc1)c1ccc(F)cc1" . Reported IC50: 519

* * *

system under test: LPLA2 (Mus musculus, UniProt Q8VEB4)
Construct: purchased Proteos Inc. (Kalamazoo, MI)
test: LPLA2 thermal stability measurement (SYPRO Orange Tm)
Format: binding
cond: N=3 ± SD
Measured (ΔTm)c-(ΔTm)d, difference in melting temperature of LPLA2 alone or in the presence of drug values are reported for all entries that follow.
Provide only the numeric value, understood in °C.

Worked cases, (ΔTm)c-(ΔTm)d, difference in melting temperature of LPLA2 alone or in the presence of drug given:
CN(C)CCOC(=O)C(c1ccccc1)C1(O)CCCC1 (centres unmarked) [Cyclopentolate] :: 0.87
COCC(=O)O[C@]1(CCN(C)CCCc2nc3ccccc3[nH]2)CCc2cc(F)ccc2[C@@H]1C(C)C :: 1.30
CN(C)CC/C=C1/c2ccccc2Sc2ccc(Cl)cc21 :: -2.0
CC1=C(CC(=O)O)c2cc(F)ccc2/C1=C\c1ccc([S+](C)[O-])cc1 (centres unmarked) :: -0.10

Note: attention shifts to another entry.
Record "O=C(Nc1cccc2c(=O)cc(-c3nnn[nH]3)oc12)c1ccc(OCCCCc2ccccc2)cc1" . Reported (ΔTm)c-(ΔTm)d, difference in melting temperature of LPLA2 alone or in the presence of drug: 0

* * *

Measured (ΔTm)c-(ΔTm)d, difference in melting temperature of LPLA2 alone or in the presence of drug values are reported for all entries that follow.
system under test: LPLA2 (Mus musculus)
Construct: purchased Proteos Inc. (Kalamazoo, MI)
test: LPLA2 thermal stability measurement (SYPRO Orange Tm)
Format: binding
cond: N=3 ± SD

Worked cases, (ΔTm)c-(ΔTm)d, difference in melting temperature of LPLA2 alone or in the presence of drug given:
COc1cc(C(=O)OCCCN2CCCN(CCCOC(=O)c3cc(OC)c(OC)c(OC)c3)CC2)cc(OC)c1OC :: 0.11 ± 0.1 °C
CC(C)NCC(O)COc1ccc(CCOCC2CC2)cc1 (centres unmarked) :: -1.29 ± 0.9 °C
Cc1ccc2c(Cl)cc(Cl)c(O)c2n1 :: 1.88 ± 0.9 °C
C[C@H]1[C@H]2CC[C@H]3[C@@H]4CC=C5C[C@@H](N(C)C)CC[C@]5(C)[C@H]4CC[C@]23CN1C :: 0.20 ± 01 °C

Note: attention shifts to another entry.
Record "CN(Cc1ccc(C(C)(C)C)cc1)Cc1cccc2ccccc12" . Reported (ΔTm)c-(ΔTm)d, difference in melting temperature of LPLA2 alone or in the presence of drug: -2.22 ± 0.3 °C
